These measurements were taken from the NIST ThermoML archive (doi:10.1016/j.jct.2004.09.009).

Conditions: Liquid; Ebulliometric method (Recirculating still)
reported.endpoint: Normal boiling temperature (°C)

CCC(C)O (stereo not given); 99.19
CC(C)O; 82.46
CCOC(=O)OCC [diethyl carbonate]; 126.17
CC1CCCCC1; 100.92
COC(=O)OC [dimethyl carbonate]; 90.31

====

Details: 298.15 K; 101.33 kPa; Liquid; Vibrating tube method
reported.endpoint: mass density (kg/m3)

CC(C)O; 780.87
CCOC(=O)OCC [diethyl carbonate]; 969.24
CC1CCCCC1; 764.98
CCC(C)O (stereo not given); 802.4
COC(=O)OC [dimethyl carbonate]; 1063.36
